Source: patent US9790233B2

Tested on: 15-PGDH luciferase fusion construct in V9m reporter cell line
assay-info: 15-PGDH-luciferase fusion gene reporter induction, V9m cells
Type: cell-based
test-settings: read-out: V9M reporter activity ([…]), […]; % induction over basal level; Table 17; read-out: V9M reporter activity (7.5 μM)
quantity-measured: activation at […]
Hey, just the number and the unit after it is fine.

Q) Check the records and state activation at […] for COc1ccc(OC)c(N(CC(=O)Nc2ccccc2Br)S(=O)(=O)c2ccc(C)cc2)c1 [compound 771132]
A) 12.2%

Q) Please indicate activation at […] recorded for COc1ccc(OC)c(NC(=O)CN(c2ccccc2)S(=O)(=O)c2cc(Br)ccc2OC)c1 [compound 1002654]
A) -3.96%

Q) Please look at this compound and report its activation at […]: COc1ccc(N(CC(=O)N/N=C/c2cccnc2)S(=O)(=O)c2ccccc2)c(OC)c1 [compound 396087]
A) 10.1%

Q) State, in one line, measured activation at […] of COc1ccc(OC)c(N(CC(=O)Nc2ccccc2C(=O)NC(C)C)S(=O)(=O)c2ccc(OC)c(OC)c2)c1 [compound 1003378]
A) -3.27%

Q) Check the records and state activation at […] for COc1ccc(N(CC(=O)Nc2ccc(Br)cc2)S(=O)(=O)c2ccccc2)c(OC)c1 [compound 785161]
A) 3.48%

Q) // Input: COc1ccc(S(=O)(=O)N(CC(=O)Nc2ccccc2)c2ccccc2)cc1 [compound 474738] . Output its activation at […] only.
A) 3.48%

Q) Give recorded activation at […]. COc1ccc(OC)c(N(CC(=O)Nc2ccc(Br)cc2F)S(=O)(=O)c2ccc(C)cc2)c1 [compound 1004292]
A) -0.21%

Q) Output measured activation at […] for this item: CCOC(=O)c1ccc(NC(=O)CN(c2cc(OC)ccc2OC)S(=O)(=O)c2ccc(OC)c(OC)c2)cc1 [compound 1003132]
A) -0.21%

---

study-target: 15-PGDH protein (Homo sapiens (Human))
Sequence (P15428 whole entry): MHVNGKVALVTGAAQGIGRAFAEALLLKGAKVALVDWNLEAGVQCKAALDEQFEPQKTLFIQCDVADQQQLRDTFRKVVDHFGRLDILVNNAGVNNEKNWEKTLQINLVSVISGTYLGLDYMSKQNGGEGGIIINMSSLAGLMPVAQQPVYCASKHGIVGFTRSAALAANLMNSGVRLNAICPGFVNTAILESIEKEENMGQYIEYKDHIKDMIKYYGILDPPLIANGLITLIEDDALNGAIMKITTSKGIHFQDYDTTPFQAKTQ
assay-info: Inhibition of enzymatic activity of recombinant 15-PGDH in vitro (tritium transfer from PGE2 or NADH fluorescence)
Assay type: biochemical
test-settings: recombinant 15-PGDH in vitro; read-out: Enzyme inhibition (IC50)
quantity-measured: IC50

Q) Return reported IC50. Input compound: COc1ccc(OC)c(N(CC(=O)Nc2ccc(C)nc2)S(=O)(=O)c2ccccc2)c1
A) ~10 µM

Q) Supply reported IC50 belonging to this compound: COc1ccc(S(=O)(=O)N(CC(=O)Nc2cccnc2)c2cc(OC)ccc2OC)cc1
A) ~5 µM

Q) Please list IC50 recorded for the compound COc1ccc(OC)c(N(CC(=O)Nc2cncnc2)S(=O)(=O)c2ccccc2)c1
A) ~7 µM

---

Tested on: 15-PGDH luciferase fusion construct in Vaco503 reporter cell line
assay-info: 15-PGDH-luciferase fusion gene reporter induction, V503 cells
Assay type: cell-based
test-settings: read-out: V503-3H9-7 reporter activity, % ([…]), […]; Table 18; read-out: V503-3H9-7 reporter activity, % (2.5 μM)
quantity-measured: activation at […] (%)
Numbers only; they are read as %.

Q) Give me measured activation at […], please, for this molecule: O=C(CN(c1cc(Cl)ccc1Cl)S(=O)(=O)c1ccccc1)Nc1cccnc1
A) 96.4

Q) Given COc1ccc(NC(=O)CN(c2cc(OC)ccc2OC)S(=O)(=O)c2ccccc2)cc1 , respond with its activation at […].
A) 76.9

Q) Identify measured activation at […] associated with COc1ccccc1N(CC(=O)Nc1cccnc1)S(=O)(=O)c1ccccc1
A) -0.87

Q) State its activation at […]: CCc1ccc(N(CC(=O)Nc2cccnc2)S(=O)(=O)c2ccccc2)cc1
A) 1.57

Q) For the molecule COc1ccc(OC)c(N(CC(=O)Nc2ccccc2C(N)=O)S(=O)(=O)c2ccccc2)c1 , give its reported activation at […].
A) 52.6

Q) Quick one: give measured activation at […] for COc1ccc(OC)c(N(CC(=O)Nc2ccc(F)cc2)S(=O)(=O)c2ccccc2)c1
A) 64
